- Test system: LOX IMVI
- experiment.summary: Antiproliferative activity against human LOX IMVI cells assessed as cell growth inhibition at 10 uM incubated for 48 hrs by SRB assay relative to control
- Assay type: functional
- settings: read-out: GI
recorded.metric: inhibition of growth at 10 µM

Request: // query inhibition of growth at 10 µM value for entry Cc1nc2c(cnn2-c2ccccc2)c(=O)n1-c1ccc(N2C(=O)C=CC2=O)cc1
Result: < 15%

Request: // query inhibition of growth at 10 µM value for entry Cc1nc2c(cnn2-c2ccccc2)c(=O)n1-c1ccc(N2C(=O)c3ccccc3C2=O)cc1
Result: < 15%

Request: // query inhibition of growth at 10 µM value for entry Cc1nc2c(cnn2-c2ccccc2)c(=O)n1-c1ccc(NC(=O)c2ccco2)cc1
Result: < 15%

These data points were gathered from ChEMBL document CHEMBL5356993.
